Provenance of the data: the NIST ThermoML archive (doi:10.1016/j.jct.2007.01.017)

Details: 298.15 K; 101.33 kPa; Liquid

compound: CCCCCl [1-chlorobutane]
unit.descriptor: kg/m3
mass density: 880.72
--
compound: CCCCCCCl [1-chlorohexane]
unit.descriptor: kg/m3
mass density: 873.21
--
compound: CC(=O)N(C)C [N,N-dimethylethanamide]
unit.descriptor: kg/m3
mass density: 936.34
--
compound: CN(C)C=O [dimethylformamide]
unit.descriptor: kg/m3
mass density: 943.81
--
compound: CCCCCCCCCl [1-chlorooctane]
unit.descriptor: kg/m3
mass density: 868.98

---

Overview of reported excess molar enthalpy across a group of compounds:
Test: excess molar enthalpy (molar enthalpy of mixing); xn = mol fraction of the nth substance listed
Settings: 308.15 K; 101 kPa; Liquid; Flow calorimetry; x2 = 0.798

compound: CCCCCCCCCl [1-chlorooctane] + CN(C)C=O
unit.descriptor: kcal/mol
excess molar enthalpy: 0.198
//
compound: CCCCCCCl [1-chlorohexane] + CC(=O)N(C)C
unit.descriptor: kcal/mol
excess molar enthalpy: 0.108
//
compound: CCCCCCCl [1-chlorohexane] + CN(C)C=O
unit.descriptor: kcal/mol
excess molar enthalpy: 0.143
//
compound: CCCCCCCCCl [1-chlorooctane] + CC(=O)N(C)C
unit.descriptor: kcal/mol
excess molar enthalpy: 0.156
